- target of assay: VgEcR and RXR heterodimeric receptor (pVgRXR) with pIND/luc in CHO cells (Drosophila melanogaster, UniProt P34021, E282G/G283S/G286V)
- Construct: host or cells: CHO cells (ATCC CCL-61), transiently transfected or stably transformed with pVgRXR
- Sequence (P34021 1-878 E282G/G283S/G286V): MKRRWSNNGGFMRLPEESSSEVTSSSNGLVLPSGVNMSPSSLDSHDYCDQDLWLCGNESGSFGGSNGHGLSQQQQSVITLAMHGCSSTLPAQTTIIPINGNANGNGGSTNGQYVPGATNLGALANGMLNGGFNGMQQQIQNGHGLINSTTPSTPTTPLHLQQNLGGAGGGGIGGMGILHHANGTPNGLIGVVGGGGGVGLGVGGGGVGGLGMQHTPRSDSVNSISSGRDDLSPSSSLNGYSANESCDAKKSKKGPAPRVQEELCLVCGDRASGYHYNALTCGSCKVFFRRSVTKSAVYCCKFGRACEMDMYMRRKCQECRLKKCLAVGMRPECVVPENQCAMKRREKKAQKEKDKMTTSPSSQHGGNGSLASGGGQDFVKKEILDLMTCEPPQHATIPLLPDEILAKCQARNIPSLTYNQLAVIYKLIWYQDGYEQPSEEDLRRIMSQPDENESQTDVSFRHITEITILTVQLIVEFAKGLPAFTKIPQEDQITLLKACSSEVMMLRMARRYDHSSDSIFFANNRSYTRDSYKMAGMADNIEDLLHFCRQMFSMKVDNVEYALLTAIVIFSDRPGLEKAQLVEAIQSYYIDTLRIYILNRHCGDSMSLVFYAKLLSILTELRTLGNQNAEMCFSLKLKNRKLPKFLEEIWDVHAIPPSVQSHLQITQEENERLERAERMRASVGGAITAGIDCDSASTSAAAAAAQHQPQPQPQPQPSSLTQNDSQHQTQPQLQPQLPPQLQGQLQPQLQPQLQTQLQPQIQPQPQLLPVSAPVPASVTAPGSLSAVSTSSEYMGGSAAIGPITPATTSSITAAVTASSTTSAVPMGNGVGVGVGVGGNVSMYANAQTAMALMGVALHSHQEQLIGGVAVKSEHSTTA
- Sequence (P19793 1-462 partner): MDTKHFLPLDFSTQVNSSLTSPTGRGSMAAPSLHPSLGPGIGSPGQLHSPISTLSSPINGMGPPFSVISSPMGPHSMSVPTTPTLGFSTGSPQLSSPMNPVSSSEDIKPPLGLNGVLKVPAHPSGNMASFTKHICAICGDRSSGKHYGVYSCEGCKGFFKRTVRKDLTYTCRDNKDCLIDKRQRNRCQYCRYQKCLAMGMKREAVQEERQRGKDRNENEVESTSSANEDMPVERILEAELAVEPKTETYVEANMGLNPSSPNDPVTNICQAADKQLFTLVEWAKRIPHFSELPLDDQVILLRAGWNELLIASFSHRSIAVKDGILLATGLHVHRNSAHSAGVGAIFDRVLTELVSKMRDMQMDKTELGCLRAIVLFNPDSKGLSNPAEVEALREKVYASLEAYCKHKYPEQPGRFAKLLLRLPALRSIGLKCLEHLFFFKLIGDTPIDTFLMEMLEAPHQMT
- experimental protocol: Luciferase gene activation in transiently transfected CHO cells
- Type: cell-based
- condition: ligand 10 μM, luciferase
Entries annotated with measured Induction Ratio (RLU in presence and absence of the ligand)
Give the value as a plain number.

Some molecules with known Induction Ratio (RLU in presence and absence of the ligand) results, for comparison:
- molecule: "CCc1c(OC)cccc1C(=O)NN(C(=O)c1cc(Cl)cc(Cl)c1)C(C)(C)C"
  experimental value: 5
- molecule: "CC(C)(C)N(NC(=O)c1ccccc1)C(=O)c1ccccc1 [CE-2, 1,2-dibenzoyl-1-tert-butyl-hydrazine, reference compound]"
  experimental value: 1
- molecule: "CCc1c(OC)cccc1C(=O)NN(C(=O)c1cccc(OC)c1)C(C)(C)C"
  experimental value: 7

Query string: Given the molecule CC(C)CC[C@@H](O)[C@](C)(O)[C@H]1CC[C@@]2(O)C3=CC(=O)[C@]4(O)C[C@@H](O)[C@@H](O)C[C@]4(C)[C@H]3[C@H](O)C[C@]12C [CE-3, muristerone A, reference compound] , write its reported Induction Ratio (RLU in presence and absence of the ligand).
Result string: 8
